From: patent US20220162200A1

AC50 values, listed per item
# ASSAY_TARGET: PKM2 (Homo sapiens, UniProt P14618)
# Sequence (P14618 whole entry): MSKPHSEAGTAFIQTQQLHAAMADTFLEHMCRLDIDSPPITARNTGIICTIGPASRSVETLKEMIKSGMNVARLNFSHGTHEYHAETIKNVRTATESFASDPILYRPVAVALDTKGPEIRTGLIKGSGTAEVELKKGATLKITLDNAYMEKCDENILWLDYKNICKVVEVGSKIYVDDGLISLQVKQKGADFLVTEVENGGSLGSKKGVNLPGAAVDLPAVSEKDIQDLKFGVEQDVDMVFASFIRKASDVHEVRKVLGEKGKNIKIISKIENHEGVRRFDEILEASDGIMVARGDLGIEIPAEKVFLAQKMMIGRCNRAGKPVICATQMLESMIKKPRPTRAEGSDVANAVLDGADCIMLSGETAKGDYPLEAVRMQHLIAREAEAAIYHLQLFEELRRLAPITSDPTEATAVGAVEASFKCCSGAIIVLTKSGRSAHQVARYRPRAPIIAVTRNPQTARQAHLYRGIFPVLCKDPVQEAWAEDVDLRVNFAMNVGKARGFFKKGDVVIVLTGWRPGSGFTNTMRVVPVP
# ASSAY_DETAILS: PKM2 activation assay (ATP formation measured by Kinase Glo)
# Format: biochemical
# STATED_CONDITIONS: 2 nM PKM2, 30 min pre-incubation, 75 μM ADP, 15 μM PEP, ATP formation after 30 min

O=C(c1cc(C(F)(F)F)n[nH]1)N(CCC1CCS(=O)(=O)CC1)Cc1c(F)ccc2c(Cl)c[nH]c12 | < 0.015 µM
O=C(c1cc(C(F)(F)F)n[nH]1)N(CCC1CCS(=O)(=O)CC1)Cc1c(F)ccc2cc[nH]c12 | < 0.015 µM
O=C(c1cc(C(F)(F)F)n[nH]1)N(CCC1CCS(=O)(=O)CC1)Cc1c(F)cccc1Cl | > 0.05 µM
Nc1ccccc1CN(CCC1CCS(=O)(=O)CC1)C(=O)c1cc(C(F)(F)F)n[nH]1 | > 0.05 µM
Cc1ccc(F)c(CN(CCC2CCS(=O)(=O)CC2)C(=O)c2cc(C(F)(F)F)n[nH]2)c1 | 0.015 to 0.05 µM

--- query ---
Ask | Fill: AC50 (PKM2 (Homo sapiens, UniProt P14618)) for this compound `Nc1cccc(Br)c1CN(CCC1CCS(=O)(=O)CC1)C(=O)c1cc(C(F)(F)F)n[nH]1`
Reply | > 0.05 µM
